Target: T1, human Amyloid beta 1-42 peptide (Homo sapiens, UniProt P05067)
T1 construct: biotinylated human Amyloid beta 1-42 peptide (rpeptide, USA; cat: A1117); purchased rPeptide, USA A1117; host or cells: synthetic peptide
T1 sequence (P05067 672-713): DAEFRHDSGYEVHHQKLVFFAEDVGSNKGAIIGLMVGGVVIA
Test: Surface Plasmon Resonance kinetic profiling of purified scFv (ProteOn)
Format: binding
Conditions: biotinylated human Amyloid beta 1-42 on streptavidin chip

| MOLECULE | VALUE UNIT | ka |
| --- | --- | --- |
| Abet0381: optimized anti-Aβ1-42 clone derived from Abet0144-GL (protein, left off: small tags and cut ends, optimized anti-Aβ1-42 clone derived from Abet0144-GL) scFv (part 1 of 2): EVQLLESGGGLVQPGGSLRLSCAASSPSFPRETMWWVRQAPGKGLEWVSVIGTQPNRLTYADSVKGRFTISRDNSKNTLYLQMNSLRAEDTAVYYCAREWMDHSRPYYYYGIDVWGQGTLVTVSP scFv (part 2 of 2): SYELTQPPSVSASPGQTASITCSGHNLEDKFVSWYQQKPGQSPVLVIYRDDKRPSGIPERFSASNSGHTATLTISGTQATDEANYYCSSQDTVTRAFGGGTKLTVL | M⁻¹ s⁻¹ | 213000 |
| Abet0329: optimized anti-Aβ1-42 clone derived from Abet0144-GL (protein, left off: small tags and cut ends, optimized anti-Aβ1-42 clone derived from Abet0144-GL) scFv (part 1 of 2): EVQLLESGGGLVQPGGSLRLSCAASTFNLKRETMWWVRQAPGKGLEWVSVIGSHQERTSYADSVKGRFTISRDNSKNTLYLQMNSLRAEDTAVYYCAREWMDHSRPYYYYGMDVWGQGTLVTVSS scFv (part 2 of 2): SYELTQPPSVSVSPGQTASITCSGHNVSDKWMTWYQQKPGQSPVLVIYRDDKRPSGIPERFSASNSGHTATLTISGTQATDEADYYCSSQDTVTRVFGGGTKLTVL | M⁻¹ s⁻¹ | 197000 |
| Abet0378: optimized anti-Aβ1-42 clone; amber stop codon at VL position 91 read as glutamine (protein, left off: small tags and cut ends, optimized anti-Aβ1-42 clone; amber stop codon at VL position 91 read as glutamine) scFv (part 1 of 2): EVQLLESGGGLVQPGGSLRLSCAASGFPFETDIMWWVRQAPGKGLEWVSVIGTNTDNVAYADSVKGRFTISRDNSKNTLYLQMNSLRAEDTAVYYCAREWMDHSRPYYYYGMDVWGQGTLVTVSS scFv (part 2 of 2): SYELTQPPSVSVSPGQTASITCSGHNLEDKFASWYQQKPGQSPVLVIYRDDKRPSGIPERFSASNSGHTATLTISGTQATDEADYYCSSQDTVTRVFGGGTKLTVL | M⁻¹ s⁻¹ | 136000 |
| Abet0372: optimized anti-Aβ1-42 clone derived from Abet0144-GL (protein, left off: small tags and cut ends, optimized anti-Aβ1-42 clone derived from Abet0144-GL) scFv (part 1 of 2): EVQLLESGGGLVQPGGSLRLSCAASSDMFNIETMWWVRQAPGKGLEWVSVIGKGMNNVSYADSVKGRFTISRDNSKNTLYLQMNSLRAEDTAVYYCAREWMDHSRPYYYYGMDVWGQGTLVTVSS scFv (part 2 of 2): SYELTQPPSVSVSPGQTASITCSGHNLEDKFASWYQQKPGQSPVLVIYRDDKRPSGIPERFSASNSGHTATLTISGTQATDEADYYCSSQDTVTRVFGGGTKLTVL | M⁻¹ s⁻¹ | 243000 |
